Biological target: Toll-like receptor 4 (Mus musculus)
Sequence (whole entry): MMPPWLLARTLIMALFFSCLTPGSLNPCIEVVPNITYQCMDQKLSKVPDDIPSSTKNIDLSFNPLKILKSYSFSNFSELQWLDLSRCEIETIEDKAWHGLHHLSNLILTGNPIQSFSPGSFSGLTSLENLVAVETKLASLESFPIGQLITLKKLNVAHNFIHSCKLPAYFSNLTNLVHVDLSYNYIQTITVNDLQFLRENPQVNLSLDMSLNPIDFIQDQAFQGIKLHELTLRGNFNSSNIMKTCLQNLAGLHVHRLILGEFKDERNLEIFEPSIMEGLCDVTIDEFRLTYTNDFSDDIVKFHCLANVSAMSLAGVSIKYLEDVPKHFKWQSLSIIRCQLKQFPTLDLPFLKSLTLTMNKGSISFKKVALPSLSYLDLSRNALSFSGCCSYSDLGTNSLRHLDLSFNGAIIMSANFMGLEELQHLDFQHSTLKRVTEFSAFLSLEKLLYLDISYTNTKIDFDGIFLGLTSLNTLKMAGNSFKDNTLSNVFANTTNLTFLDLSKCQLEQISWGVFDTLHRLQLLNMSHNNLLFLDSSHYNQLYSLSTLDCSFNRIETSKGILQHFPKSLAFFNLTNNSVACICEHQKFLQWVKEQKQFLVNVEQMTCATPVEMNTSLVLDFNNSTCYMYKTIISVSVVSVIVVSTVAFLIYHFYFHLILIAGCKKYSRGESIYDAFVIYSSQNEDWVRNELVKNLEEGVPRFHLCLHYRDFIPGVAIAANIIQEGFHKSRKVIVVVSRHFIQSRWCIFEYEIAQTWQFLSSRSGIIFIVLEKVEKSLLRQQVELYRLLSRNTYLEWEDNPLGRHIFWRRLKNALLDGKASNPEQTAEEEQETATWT
Assay: Inhibition of TLR4 in BALB/c mouse BMDM assessed as downregulation of LPS-stimulated IL-12p40 level at 5 ug/ml preincubated for 18 hrs followed by LPS challenge measured after 24 hrs by ELISA relative to control
The source made the active and inactive calls. How the calls were made is not given here.
Assign a class; possible classes are active, inactive

Some entries whose results are on file:
CN(C)CCNS(=O)(=O)Cc1ccc(Br)cc1 :: inactive
Cc1ccc(CP(=O)(O)OCCN(C)C)cc1 :: inactive
Cc1ccc(CS(=O)(=O)NCCN(C)C)cc1 :: inactive

Query: recorded result category for CN(C)CCS(=O)(=O)NCc1ccc([N+](=O)[O-])cc1 in this test
inactive

Please share the test call associated with CC(C)NCCS(=O)(=O)c1ccccc1 .
inactive

// param item: CC[C@H](C)NCCS(=O)(=O)c1ccccc1 ; yields the recorded call
inactive

Look up the recorded call for COc1cccc(C(=O)NCCN(C)C)c1 in this test.
active

Returns: the outcome recorded for O=C(Cc1ccccc1)NCCN1CCCC1 in this assay.
active

Tell me the assay call for O=S(=O)(CCN1CCCC1)NCc1ccc(Br)cc1 please.
inactive

# lookup: test call for CC[C@@H](C)NCCS(=O)(=O)Cc1cccc(F)c1
inactive

Lab log entry: CCCNCCS(=O)(=O)c1ccccc1 — outcome as called in the assay?
inactive

// return assay outcome for CN(C)CCCNS(=O)(=O)Cc1ccccc1
inactive

Status in this test for Cc1ccc(CS(=O)(=O)CCCN2CCCC2)cc1 ?
inactive
